# Experimental system: MCH-1R (Homo sapiens, UniProt Q99705)
# Sequence (Q99705 whole entry): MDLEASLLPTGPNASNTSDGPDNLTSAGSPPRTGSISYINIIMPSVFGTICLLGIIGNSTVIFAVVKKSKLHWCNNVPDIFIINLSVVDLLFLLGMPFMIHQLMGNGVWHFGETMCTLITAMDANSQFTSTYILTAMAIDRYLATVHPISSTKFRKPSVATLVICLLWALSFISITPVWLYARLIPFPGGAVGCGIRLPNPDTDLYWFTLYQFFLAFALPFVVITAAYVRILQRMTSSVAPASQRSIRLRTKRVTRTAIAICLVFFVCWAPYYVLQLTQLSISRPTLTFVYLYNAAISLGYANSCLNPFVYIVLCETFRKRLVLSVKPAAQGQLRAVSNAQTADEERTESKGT
Residues, ends and D or L forms follow the SMILES beside them.
Observable: pIC50
Recall that pIC50 is obtained by taking minus log10 of the concentration measured in molar.

I looked up CSCC[C@@H]1NC(=O)[C@@H](NC(=O)[C@@H](CCCNC(=N)N)NC(C)=O)CSSC[C@@H](C(N)=O)NC(=O)[C@@H]2CCCN2C(=O)[C@H](CCCNC(=N)N)NC(=O)[C@H](Cc2ccc(O)cc2)NC(=O)[C@H](C(C)C)NC(=O)[C@H](CCCNC(=N)N)NC(=O)[C@H](CC(N)=O)NC(=O)[C@H](CC(C)C)NC1=O [SEQ. ID. NO. 29] (HELM PEPTIDE1{[ac].[dR].C.M.L.N.R.V.Y.R.P.C.[am]}$PEPTIDE1,PEPTIDE1,3:R3-12:R3$$$V2.0) and its pIC50 for MCH-1R (Homo sapiens, UniProt Q99705) was 9.30

---

# Experimental system: MCH-1R (Homo sapiens)
# Assay remarks: Aequorin bioluminescence functional assay, 293AEQ17/MCH-1R cells
# Assay type: cell-based
# Design: expressed in transfected cells
# Condition description: human MCH = 100; activation at 10 μM concentration
Residues, ends and D or L forms follow the SMILES beside them.
Observable: MCH-1R Activation % (%)
Give your result in % as a bare value.

CSCC[C@@H]1NC(=O)[C@@H](NC(=O)[C@H](CCCNC(=N)N)NC(C)=O)CSSC[C@@H](C(N)=O)NC(=O)[C@@H]2CCCN2C(=O)[C@H](CCCNC(=N)N)NC(=O)[C@H](Cc2ccc(O)cc2)NC(=O)[C@H](C(C)C)NC(=O)[C@H](CCCNC(=N)N)NC(=O)[C@H](CC(N)=O)NC(=O)[C@H](CC(C)C)NC1=O [SEQ. ID. NO. 25] (HELM PEPTIDE1{[ac].R.C.M.L.N.R.V.Y.R.P.C.[am]}$PEPTIDE1,PEPTIDE1,3:R3-12:R3$$$V2.0) = 126

# evaluate next
Item: CCCC[C@@H]1NC(=O)[C@@H](NC(=O)[C@@H](CCCNC(=N)N)NC(C)=O)CSSC[C@@H](C(N)=O)NC(=O)[C@@H]2CCCN2C(=O)[C@H](CCCNC(=N)N)NC(=O)[C@H](Cc2ccc(O)cc2)NC(=O)[C@H](C(C)C)NC(=O)[C@H](CCCNC(=N)N)NC(=O)[C@H](CC(N)=O)NC(=O)[C@H](CC(C)C)NC1=O [SEQ. ID. NO. 31] (HELM PEPTIDE1{[ac].[dR].C.[Nle].L.N.R.V.Y.R.P.C.[am]}$PEPTIDE1,PEPTIDE1,3:R3-12:R3$$$V2.0) | MCH-1R Activation %: 130

---

# Experimental system: MCH-2R (Homo sapiens)
# Assay remarks: Aequorin bioluminescence functional assay, 293AEQ17/MCH-2R cells
# Condition description: aequorin, 293AEQ17/MCH-2R cells
# Experimental: The aequorin bioluminescence assay is a reliable test for identifying G-protein-coupled receptors that couple through the G protein subunit family consisting of Gq and G11. […] The cells were harvested, washed once in ECB medium, and resuspended to 500,000 cells/mL. 100 μL of cell suspension (corresponding to 5×10^4 cells) was then injected into the test plate containing the hMCH peptides, and the integrated light emission was recorded over 30 seconds, in 0.5-s units. […]
pEC50: −log10 of the molar value. Residues, ends and D or L forms follow the SMILES beside them.
Observable: pEC50

Study these solved cases before continuing.
CSCC[C@@H]1NC(=O)[C@@H](NC(=O)[C@@H](CCCNC(=N)N)NC(C)=O)CSSC[C@@H](C(N)=O)NC(=O)[C@@H]2CCCN2C(=O)[C@H](C)NC(=O)[C@H](Cc2ccc(O)cc2)NC(=O)[C@H](C(C)C)NC(=O)[C@H](CCCNC(=N)N)NC(=O)[C@H](CC(N)=O)NC(=O)[C@H](CC(C)C)NC1=O [SEQ. ID. NO. 33] (HELM PEPTIDE1{[ac].[dR].C.M.L.N.R.V.Y.A.P.C.[am]}$PEPTIDE1,PEPTIDE1,3:R3-12:R3$$$V2.0) = < 5.00
CSCC[C@@H]1NC(=O)[C@@H](NC(=O)[C@@H](CCCNC(=N)N)NC(C)=O)CSSC[C@@H](C(N)=O)NC(=O)[C@@H]2CCCN2C(=O)[C@H](CCCNC(=N)N)NC(=O)[C@H](Cc2ccc(O)cc2)NC(=O)[C@H](C(C)C)NC(=O)[C@H](CCCNC(=N)N)NC(=O)[C@H](CCC(N)=O)NC(=O)[C@H](CC(C)C)NC1=O [SEQ. ID. NO. 30] (HELM PEPTIDE1{[ac].[dR].C.M.L.Q.R.V.Y.R.P.C.[am]}$PEPTIDE1,PEPTIDE1,3:R3-12:R3$$$V2.0) = < 5.00

Item: CSCC[C@@H]1NC(=O)[C@@H](NC(=O)[C@H](N)CCCNC(=N)N)CSSC[C@@H](C(N)=O)NC(=O)[C@@H]2CCCN2C(=O)[C@H](CCCNC(=N)N)NC(=O)[C@H](Cc2ccc(O)cc2)NC(=O)[C@H](C(C)C)NC(=O)[C@H](CCCNC(=N)N)NC(=O)CNC(=O)[C@H](CC(C)C)NC1=O | pEC50: 7.26

---

# Experimental system: MCH-1R (Homo sapiens, UniProt Q99705)
# Condition description: binding ratio
Residues, ends and D or L forms follow the SMILES beside them.
Parameter Selectivity 2/1 (MCH-2R/MCH-1R IC50 binding ratio): see the listing below.
Answer as a number with no unit attached.

Study these solved cases before continuing.
CSCC[C@@H]1NC(=O)[C@@H](NC(=O)[C@@H](Cc2ccccc2)NC(C)=O)CSSC[C@@H](C(N)=O)NC(=O)[C@@H]2CCCN2C(=O)[C@H](CCCNC(=N)N)NC(=O)[C@H](Cc2ccc(O)cc2)NC(=O)[C@H](C(C)C)NC(=O)[C@H](CCCNC(=N)N)NC(=O)CNC(=O)[C@H](CC(C)C)NC1=O = 1380
CSCC[C@@H]1NC(=O)[C@@H](NC(=O)[C@H](CCCNC(=N)N)NC(C)=O)CSSC[C@@H](C(N)=O)NC(=O)[C@@H]2CCCN2C(=O)[C@H](CCCNC(=N)N)NC(=O)[C@H](Cc2ccc(O)cc2)NC(=O)[C@H](C(C)C)NC(=O)[C@H](CCCNC(=N)N)NC(=O)[C@H](CCCNC(N)=O)NC(=O)[C@H](CC(C)C)NC1=O = 42

# evaluate next
Item: CSCC[C@@H]1NC(=O)[C@@H](NC(=O)[C@H](CCCNC(=N)N)NC(C)=O)CSSC[C@@H](C(N)=O)NC(=O)[C@@H]2CCCN2C(=O)[C@H](CCCNC(=N)N)NC(=O)[C@H](Cc2ccc(O)cc2)NC(=O)[C@H](C(C)C)NC(=O)[C@H](CCCNC(=N)N)NC(=O)[C@H](Cc2ccccc2)NC(=O)[C@H](CC(C)C)NC1=O [SEQ. ID. NO. 20] (HELM PEPTIDE1{[ac].R.C.M.L.F.R.V.Y.R.P.C.[am]}$PEPTIDE1,PEPTIDE1,3:R3-12:R3$$$V2.0) | Selectivity 2/1 (MCH-2R/MCH-1R IC50 binding ratio): 19

---

# Experimental system: MCH-2R (Homo sapiens, UniProt Q969V1)
# Sequence (Q969V1 whole entry): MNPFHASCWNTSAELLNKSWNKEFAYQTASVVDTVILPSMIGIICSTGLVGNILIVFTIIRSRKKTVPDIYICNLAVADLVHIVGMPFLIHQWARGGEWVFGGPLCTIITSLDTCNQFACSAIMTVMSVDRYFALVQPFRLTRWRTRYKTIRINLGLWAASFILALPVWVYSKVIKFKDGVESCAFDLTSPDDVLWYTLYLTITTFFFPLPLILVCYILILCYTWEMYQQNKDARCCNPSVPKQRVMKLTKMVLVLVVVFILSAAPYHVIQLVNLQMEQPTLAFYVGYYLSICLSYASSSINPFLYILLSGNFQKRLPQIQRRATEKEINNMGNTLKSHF
Observable: IC50 (µM)
Give your result in µM as a bare value.

Item: CSCC[C@@H]1NC(=O)[C@@H](NC(=O)[C@H](CCCNC(=N)N)NC(C)=O)CSSC[C@@H](C(N)=O)NC(=O)[C@@H]2CCCN2C(=O)[C@H](CCCNC(=N)N)NC(=O)[C@H](Cc2ccc(O)cc2)NC(=O)[C@H](C(C)C)NC(=O)[C@H](CCCNC(=N)N)NC(=O)[C@H](CC2CCCCC2)NC(=O)[C@H](CC(C)C)NC1=O | IC50: 0.055

---

Parameter MCH-2R Activation %: see the listing below.
# Experimental system: UniProtKB Q969V1
# Assay remarks: Aequorin bioluminescence functional assay, 293AEQ17/MCH-2R cells
# Type: cell-based
# Parameters: expressed in transfected cells; concentration or dose not given beside the values
# Condition description: human MCH = 100
# Experimental: The aequorin bioluminescence assay is a reliable test for identifying G-protein-coupled receptors that couple through the G protein subunit family consisting of Gq and G11. […] The cells were harvested, washed once in ECB medium, and resuspended to 500,000 cells/mL. 100 μL of cell suspension (corresponding to 5×10^4 cells) was then injected into the test plate containing the hMCH peptides, and the integrated light emission was recorded over 30 seconds, in 0.5-s units. […]
Residues, ends and D or L forms follow the SMILES beside them.
Give your result in % as a bare value.

Study these solved cases before continuing.
CSCC[C@@H]1NC(=O)[C@@H](NC(=O)[C@@H](C)NC(C)=O)CSSC[C@@H](C(N)=O)NC(=O)[C@@H]2CCCN2C(=O)[C@H](CCCNC(=N)N)NC(=O)[C@H](Cc2ccc(O)cc2)NC(=O)[C@H](C(C)C)NC(=O)[C@H](CCCNC(=N)N)NC(=O)CNC(=O)[C@H](CC(C)C)NC1=O = 51
CSCC[C@@H]1NC(=O)[C@@H](NC(=O)[C@@H](CCCNC(=N)N)NC(C)=O)CSSC[C@@H](C(N)=O)NC(=O)[C@@H]2CCCN2C(=O)[C@H](C)NC(=O)[C@H](Cc2ccc(O)cc2)NC(=O)[C@H](C(C)C)NC(=O)[C@H](CCCNC(=N)N)NC(=O)[C@H](CC(N)=O)NC(=O)[C@H](CC(C)C)NC1=O [SEQ. ID. NO. 33] (HELM PEPTIDE1{[ac].[dR].C.M.L.N.R.V.Y.A.P.C.[am]}$PEPTIDE1,PEPTIDE1,3:R3-12:R3$$$V2.0) = 17

# evaluate next
Item: CSCC[C@@H]1NC(=O)[C@@H](NC(=O)[C@H](CCCNC(=N)N)NC(C)=O)CSSC[C@@H](C(N)=O)NC(=O)[C@@H]2CCCN2C(=O)[C@H](CCCNC(=N)N)NC(=O)[C@H](Cc2ccc(O)cc2)NC(=O)[C@H](C(C)C)NC(=O)[C@H](CCCNC(=N)N)NC(=O)[C@@H]2CCCN2C(=O)[C@H](CC(C)C)NC1=O | MCH-2R Activation %: 13
